Provenance of the data: PubChem BioAssay (Tox21)

Test: qHTS assay to identify small molecule antagonists of the thyroid receptor (TR) signaling pathway (AID 743065); further: nearly all actives have a fitted effect of over 55% in size
Settings: GH3.TRE-Luc, T3-stimulated luciferase inhibition, 23.5 h; series mostly up to 70.3 µM
Excerpt: U.S. Tox21 Program National Center for Advancing Translational Sciences [NCATS] NIH Chemical Genomics Center [NCGC] U.S. Environmental Protection Agency [EPA] National Institutes of Environmental Health Sciences [NIEHS] National Toxicology Program [NTP] U.S. Food and Drug Administration [FDA] Tox21 Assay Overview: Thyroid receptor (TR), a nuclear hormone receptor, plays an important role in development, proliferation, differentiation, metabolism, brain function, and cardiovascular system. […]
Records with an inconclusive call do not appear. Calls of active or inactive are those of the source. The call rests on the fitted dose curve; in most records, active means well fitted inhibition curve with a large enough effect in the repeat runs; inconclusive means weak or mixed curves; inactive means no such curve, though single readings can be large or run the other way.
Form entry, call: pick from t (active), f (inactive)

In: Call for entry "CS(=O)(=O)c1ccc(C2=C(c3ccccc3)C(=O)OC2)cc1" :
Out: f

In: Another molecule: "CCCCCCCCCCCCCCCCCCCCCC(=O)Nc1ccn([C@@H]2O[C@H](CO)[C@@H](O)[C@@H]2O)c(=O)n1"
Out: t

In: Let us now turn to "CN(C)c1ccc(C(=C2C=CC(=[N+](C)C)C=C2)c2c(O)c(S(=O)(=O)[O-])cc3cc(S(=O)(=O)O)ccc23)cc1"
Out: t

In: Quick one: "COC(=O)[C@H]1[C@H]2C[C@@H]3c4[nH]c5cc(OC)ccc5c4CCN3C[C@H]2C[C@H](OC)[C@@H]1OC"
Out: f

In: Queued: "FC(F)(F)C(F)(F)C(F)(F)C(F)(F)C(F)(F)C(F)(F)F"
Out: f

In: Consider next the molecule CCCCCCCCCCCC(=O)OC[C@@H](O)C1OC[C@H](O)[C@H]1O (some centres not stated) in the same way.
Out: f

In: Then "CC(C)CN(C[C@@H](OP(=O)(O)O)[C@H](Cc1ccccc1)NC(=O)O[C@H]1CCOC1)S(=O)(=O)c1ccc(N)cc1" ?
Out: f

In: Queued: CCC(Oc1ccccc1)C(=O)N[C@@H]1C(=O)N2[C@@H]1SC(C)(C)[C@@H]2C(=O)O (some centres not stated)
Out: f

In: Moving on to "CN(C)CCCN1c2ccccc2C(C)(C)c2ccccc21"
Out: t

In: Now give it for CC(CN1c2ccccc2Sc2ccc(S(=O)(=O)N(C)C)cc21)N(C)C (configuration not stated) too.
Out: t

In: Another: "S=C1SCN(Cc2ccccc2)CN1Cc1ccccc1"
Out: t

In: Repeat for the following molecule: C/C1=C2N=C(/C=C3N=C(/C(C)=C4\[N-][C@@](C)([C@@H]5N=C1[C@](C)(CCC(=O)NCC(C)OP(=O)(O)O[C@H]1[C@@H](O)[C@@H](n6cnc7cc(C)c(C)cc76)O[C@@H]1CO)[C@H]5CC(N)=O)[C@@](C)(CC(N)=O)[C@@H]4CCC(N)=O)[C@@](C)(CC(N)=O)[C@@H]\3CCC(N)=O)C(C)(C)[C@@H]/2CCC(N)=O.CC(=O)O.[Co] (some centres not stated)
Out: t

In: Next: CN1CCN(C(c2ccccc2)c2ccc(Cl)cc2)CC1 (configuration not stated)
Out: t

In: // same read-out, input: "CCN(CC)CCC(=O)N1c2ccccc2Sc2ccc(C(F)(F)F)cc21"
Out: t

In: Now consider "C#CCOc1ccc2c(C)cc(=O)oc2c1" and answer again.
Out: f

In: Repeat with NC(Cc1ccccc1)C(=O)O (configuration not stated)
Out: f

In: Can you handle "C=C1C(=C/C=C2\CCC[C@]3(C)[C@@H]([C@H](C)CCCC(C)(C)O)CC[C@@H]23)C[C@@H](O)C[C@@H]1O" next?
Out: t

----------
Biological target: Estrogen receptor (Homo sapiens) (UniProt P03372)
Sequence (P03372 whole entry, looked up): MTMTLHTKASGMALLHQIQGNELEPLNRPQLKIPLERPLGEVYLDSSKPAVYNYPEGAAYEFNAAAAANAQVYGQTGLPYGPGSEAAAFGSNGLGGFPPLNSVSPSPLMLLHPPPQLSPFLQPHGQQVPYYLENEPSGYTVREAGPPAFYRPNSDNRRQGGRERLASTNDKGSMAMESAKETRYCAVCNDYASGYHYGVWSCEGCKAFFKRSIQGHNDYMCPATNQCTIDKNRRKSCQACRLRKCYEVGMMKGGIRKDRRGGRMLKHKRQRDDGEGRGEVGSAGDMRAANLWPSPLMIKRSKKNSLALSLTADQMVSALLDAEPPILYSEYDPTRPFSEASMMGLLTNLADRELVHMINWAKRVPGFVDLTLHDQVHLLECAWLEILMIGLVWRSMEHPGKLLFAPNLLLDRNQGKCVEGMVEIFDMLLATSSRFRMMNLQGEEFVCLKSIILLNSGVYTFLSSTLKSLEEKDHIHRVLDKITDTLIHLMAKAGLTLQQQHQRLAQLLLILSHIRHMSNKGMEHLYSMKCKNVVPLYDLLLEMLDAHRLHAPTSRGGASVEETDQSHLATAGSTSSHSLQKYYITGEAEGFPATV
Experiment: qHTS assay to identify small molecule agonists of the estrogen receptor alpha (ER-alpha) signaling pathway (AID 743075);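 further: HEK293 GripTite cells with ER-alpha and UAS-driven beta-lactamase reporter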
Conditions: HEK293 ER-alpha-UAS-bla, beta-lactamase FRET ratio, 18 h; series mostly up to 70.1 µM
Results filed as inconclusive are left out. Calls of active or inactive are those of the source. Calls come from the whole dose curve.

{"compound": "CC1C(=O)CC2C3(C)CCC2(C(C)C(=O)O)C(=O)C13 (stereo not drawn)", "outcome": "inactive"}
{"compound": "CCC(C)[C@H]1O[C@]2(C=C[C@@H]1C)C[C@@H]1C[C@@H](C/C=C(\\C)[C@@H](O[C@H]3C[C@H](OC)[C@@H](O[C@H]4C[C@H](OC)[C@H](NC(C)=O)[C@H](C)O4)[C@H](C)O3)[C@@H](C)/C=C/C=C3\\CO[C@@H]4[C@H](O)C(C)=C[C@@H](C(=O)O1)[C@]34O)O2 (stereo partly drawn)", "outcome": "inactive"}
{"compound": "C[C@H](CSC(=O)c1ccccc1)C(=O)N1C[C@@H](Sc2ccccc2)C[C@H]1C(=O)O", "outcome": "inactive"}

----------
Molecular target: Nuclear receptor subfamily 1 group I member 2 (Homo sapiens)
Assay: CYP3A4 induction through human pregnane X receptor (PXR) by small molecules, qHTS assay (AID 1346984); further: nearly all actives have a fitted effect of over 40% in size
Settings: DPX-2 HepG2 PXR, CYP3A4-luciferin luminescence, 24 h; series mostly up to 46.1 µM
Records with an inconclusive call do not appear. Active and inactive are the calls of the source. Calls come from the whole dose curve; as a rule, active = well fitted activation curve with a large enough effect in the repeat runs; inconclusive = weak or mixed curves; inactive = no such curve, though single readings can be large or run the other way.
assay readout: outcome

Answered examples (5):
{"molecule": "C/C1=C2N=C(/C=C3N=C(/C(C)=C4\\[N-][C@@](C)([C@@H]5N=C1[C@](C)(CCC(=O)NCC(C)OP(=O)(O)O[C@H]1[C@@H](O)[C@@H](n6cnc7cc(C)c(C)cc76)O[C@@H]1CO)[C@H]5CC(N)=O)[C@@](C)(CC(N)=O)[C@@H]4CCC(N)=O)[C@@](C)(CC(N)=O)[C@@H]\\3CCC(N)=O)C(C)(C)[C@@H]/2CCC(N)=O.CC(=O)O.[Co] (stereo partly specified)", "result": "inactive"}
{"molecule": "CCCc1nc(C(C)(C)O)c(C(=O)OCc2oc(=O)oc2C)n1Cc1ccc(-c2ccccc2-c2nn[nH]n2)cc1", "result": "inactive"}
{"molecule": "CC1=C(/C=C/C(C)=C/C=C/C(C)=C/C=C/C=C(C)/C=C/C=C(C)/C=C/C2=C(C)C[C@@H](O)CC2(C)C)C(C)(C)C[C@H](O)C1", "result": "inactive"}
{"molecule": "CCOC(=O)[C@H](CS)NCCN[C@@H](CS)C(=O)OCC", "result": "inactive"}
{"molecule": "CCCCCCCCCCCC(=O)OC[C@@H](O)C1OC[C@H](O)[C@H]1O (stereo partly specified)", "result": "inactive"}

Kindly review the next molecule as well.
In: Query: outcome; subject: "CN(C)c1ccc(C(=C2C=CC(=[N+](C)C)C=C2)c2c(O)c(S(=O)(=O)[O-])cc3cc(S(=O)(=O)O)ccc23)cc1"
Out: inactive

----------
Test: qHTS assay to identify small molecule antagonists of the androgen receptor (AR) signaling pathway using the MDA cell line - cell viability counter screen (AID 743041; further: nearly all actives have a fitted effect of over 45% in size)
Conditions: MDA-kb2 viability, CellTiter-Fluor, 16 h, cells co-treated with R1881 androgen agonist; series mostly up to 70.3 µM
Records with an inconclusive call do not appear. Activity calls are given as the source filed them. Calls come from the whole dose curve; as a rule, active = well fitted cell-killing curve with a large enough effect in the repeat runs; inconclusive = weak or mixed curves, or effect the other way; inactive = flat fitted curve, though single readings scatter. Positions of bridges follow the written chain, without caps; N, C: chain ends. Non-standard residues stand in square brackets, D forms with d. Residues, ends and D or L forms follow the SMILES beside them. *: point of attachment. X2 = CC[C@H](C)CCCCC(=O)*; Dab = NCC[C@H](N)C(=O)O
Reply using exactly one outcome from yes (1) for active, no (0) for inactive

In: Assay result, entry "CNC(=O)[C@H](Cc1c[nH]c2ccccc12)NC(=O)[C@@H](CC(=O)NO)CC(C)C" — outcome?
Out: no (0)

In: "Cc1cc(-n2c(=O)[nH]c(=O)n(C)c2=O)ccc1Oc1ccc(S(=O)(=O)C(F)(F)F)cc1" ?
Out: no (0)

In: What do you have for "Cc1cc(Nc2ccccc2C(=O)O)ccc1Cl" ?
Out: no (0)

In: Would you mind doing O.O=C([O-])CC([S-])C(=O)[O-].[Au+].[Na+].[Na+] (stereo not drawn) as well?
Out: no (0)

In: Ok, now C[N+]1(C)[C@@H]2CC(OC(=O)C(O)(c3cccs3)c3cccs3)C[C@H]1[C@@H]1O[C@@H]12 (stereo partly drawn)
Out: no (0)

In: Moving on to the next compound: CC1C(=O)CC2C3(C)CCC2(C(C)C(=O)O)C(=O)C13 (stereo not drawn)
Out: no (0)

In: Try this compound too: Nc1c(Br)cc(Br)cc1CNC1CCC(O)CC1 (stereo not drawn)
Out: no (0)

In: Param item: CC(O)[C@@H]1NC(=O)[C@H](Cc2ccccc2)NC(=O)[C@H](C(C)O)NC(=O)[C@H](CCCCN)NC(=O)[C@H](Cc2c[nH]c3ccccc23)NC(=O)[C@H](Cc2ccccc2)NC(=O)[C@H](Cc2ccccc2)NC(=O)[C@H](CC(N)=O)NC(=O)[C@H](CCCCN)NC(=O)[C@@H](NC(=O)CNC(=O)[C@H](C)N)CSSC[C@@H](C(=O)O)NC(=O)[C@H](CO)NC1=O (stereo partly drawn)
Out: no (0)

In: Lookup "C[C@H]1C[C@@H]2[C@H]([C@@H](O)C[C@@]3(C)[C@H]2CC[C@]3(O)C(=O)COC(=O)CCC(=O)O)[C@@]2(C)C=CC(=O)C=C12"
Out: no (0)

In: Now the same for NC(N)=NCC1COc2ccccc2O1 (stereo not drawn)
Out: no (0)

In: Continue with CC(O)[C@H]1CC[C@H]2[C@@H]3CC[C@@H]4C[C@@H](O)CC[C@]4(C)[C@H]3CC[C@]12C (stereo partly drawn)
Out: no (0)

In: What do you get for "CC(C)CN(C[C@@H](O)[C@H](Cc1ccccc1)NC(=O)O[C@@H]1CCOC1)S(=O)(=O)c1ccc(N)cc1" ?
Out: no (0)

In: Now this one: "CC(C)(C)NC[C@H](O)COc1ccccc1C1CCCC1"
Out: no (0)

In: Another: "O=C(O)CO.[NH2-].[NH2-].[Pt+2]"
Out: no (0)

In: Consider next the compound "CN1CCN(CCCN2c3ccccc3Sc3ccccc32)CC1" in the same way.
Out: no (0)

In: Another: "CN=C1C=CC(=C(c2ccc(N(C)C)cc2)c2ccc(N(C)C)cc2)C=C1"
Out: yes (1)

In: Query C[N+]1(C)CCN(CC(O)(c2ccccc2)C2CCCCC2)CC1 (stereo not drawn) next
Out: no (0)

In: Same for "CC(=O)OCC(=O)[C@@]1(O)[C@H](C)C[C@H]2[C@@H]3C[C@H](F)C4=CC(=O)C=C[C@]4(C)[C@H]3[C@@H](O)C[C@@]21C"
Out: no (0)

In: Field entry: CN1CCC(CN2c3ccccc3Sc3ccccc32)C1 (stereo not drawn)
Out: no (0)

In: Please answer likewise for CC1(C)C2CC[C@]3(C)[C@H](C(=O)C=C4[C@@H]5C[C@@](C)(C(=O)O)CC[C@]5(C)CC[C@]43C)[C@@]2(C)CC[C@@H]1O[C@H]1O[C@H](C(=O)O)[C@@H](O)[C@H](O)[C@H]1O[C@@H]1O[C@H](C(=O)O)[C@@H](O)[C@H](O)[C@H]1O (stereo partly drawn)
Out: no (0)

In: Entry to check: "CC[N+](C)(C)Cc1ccccc1Br"
Out: no (0)

In: "O=C(CCCN1CCC(C(=O)c2ccc(F)cc2)CC1)c1ccc(F)cc1" , same question.
Out: no (0)

In: Now consider "Nc1ncnc2c1ncn2CCOCP(=O)(O)O" .
Out: no (0)

In: Okay, and "CC(=O)N[C@@H]([C@@H](O)[C@H](O)[C@H](O)CO)[C@@H](O)CC(=O)C(=O)O" ?
Out: no (0)

In: Input "C#C[C@]1(OC(C)=O)CC[C@H]2[C@@H]3CCC4=CC(=O)CC[C@@H]4[C@H]3CC[C@@]21C"
Out: no (0)

In: Same question, "CCCOc1cc(N)ccc1C(=O)OCCN(CC)CC" this time
Out: no (0)

In: And the next one, CC[C@H](C)CCCCC(=O)N[C@@H](CCN)C(=O)N[C@H](C(=O)N[C@@H](CCN)C(=O)N[C@H]1CCNC(=O)[C@H]([C@@H](C)O)NC(=O)[C@H](CCN)NC(=O)[C@H](CCN)NC(=O)[C@H](CC(C)C)NC(=O)[C@@H](CC(C)C)NC(=O)[C@H](CCN)NC1=O)[C@@H](C)O (X2-[Dab]T[Dab][Dab][Dab][dL]L[Dab][Dab]T; lactam 4-C) ?
Out: no (0)

In: Subsequent entry: "CC(C)(S)[C@@H](N)C(=O)O"
Out: no (0)

In: And then "CO[C@H]1C=CO[C@@]2(C)Oc3c(C)c(O)c4c(O)c(c(/C=N/N5CCN(C6CCCC6)CC5)c(O)c4c3C2=O)NC(=O)/C(C)=C\C=C[C@H](C)[C@H](O)[C@@H](C)[C@@H](O)[C@@H](C)[C@H](OC(C)=O)[C@@H]1C" , what is it?
Out: yes (1)

In: Entry "O=C(CO)[C@@H](O)[C@H](O)[C@@H](O)C(=O)O" please
Out: no (0)

In: Follow-up entry: CC1CCC(NC(=O)N(CCCl)N=O)CC1 (stereo not drawn)
Out: no (0)

In: How about this compound: CC(=O)N(CC(C)C(=O)O)c1c(I)cc(I)c(N)c1I (stereo not drawn)
Out: no (0)

In: Again, but for "Cc1cccc(C)c1Nc1ncccc1C(=O)O"
Out: no (0)
